# protocol-details: Drug level in Sprague-Dawley rat plasma at 10 mg/kg, po after 1 hr
# Format: ADME, organism-based
# Parameters: dose 10 mg/kg, route oral
concentration at 1 h by entry:
# output: number + unit

{"smiles-entry": "Cc1ccc(NC(=O)C(C)C)cc1C1CCN(CCCNC(=O)C(c2ccccc2)c2ccccc2)CC1", "concentration at 1 h": "69 ng/mL"}

Which measured concentration at 1 h value corresponds to `CC(C)C(=O)Nc1cccc(C2CCN(CCCNC(=O)C(c3ccccc3)c3ccccc3)CC2)c1` ? 15 ng/mL

----------
Record type: Ki measurement. Applies to: Melanin-concentrating hormone receptor 1 (Rattus norvegicus)
Put your answer as a value accompanied by its unit after it.

Example entries and their recorded answers appear below.
{"compound": "Cc1ccc(NC(=O)C(C)C)cc1C1CCN(CCCNC(=O)C(C)c2ccccc2)CC1 (single isomer, unassigned; form 2)", "target-entity": "Melanin-concentrating hormone receptor 1 (Rattus norvegicus)", "Ki": "37 nM"}
{"compound": "CCCCCC(C(=O)NCCCN1CCC(c2cccc(NC(=O)C(C)C)c2)CC1)(c1ccccc1)c1ccccc1", "target-entity": "Melanin-concentrating hormone receptor 1 (Rattus norvegicus)", "Ki": "8.5 nM"}
{"compound": "CC(C)C(=O)Nc1cccc(C2CCN(CCCNC(=O)C(c3ccc(F)cc3)c3ccc(F)cc3)CC2)c1", "target-entity": "Melanin-concentrating hormone receptor 1 (Rattus norvegicus)", "Ki": "1.4 nM"}
{"compound": "Cc1ccc(NC(=O)C(C)C)cc1C1CCN(CCCNC(=O)C(O)(c2ccccc2)c2ccccc2)CC1", "target-entity": "Melanin-concentrating hormone receptor 1 (Rattus norvegicus)", "Ki": "0.6 nM"}
{"compound": "CC(C)C(=O)Nc1cccc(C2CCN(CCCCNC(=O)C(c3ccccc3)c3ccccc3)CC2)c1", "target-entity": "Melanin-concentrating hormone receptor 1 (Rattus norvegicus)", "Ki": "50 nM"}

Test system Melanin-concentrating hormone receptor 1 (Rattus norvegicus); read-out Ki; what value for `Cc1ccc(NC(=O)C(C)C)cc1C1CCN(CCCNC(=O)C(c2ccc(F)cc2)c2ccc(F)cc2)CC1` ? 0.62 nM

----------
Attribute: pKi
# target-entity: Melanin-concentrating hormone receptor 1 (Rattus norvegicus, UniProt P97639)
# Sequence (P97639 whole entry): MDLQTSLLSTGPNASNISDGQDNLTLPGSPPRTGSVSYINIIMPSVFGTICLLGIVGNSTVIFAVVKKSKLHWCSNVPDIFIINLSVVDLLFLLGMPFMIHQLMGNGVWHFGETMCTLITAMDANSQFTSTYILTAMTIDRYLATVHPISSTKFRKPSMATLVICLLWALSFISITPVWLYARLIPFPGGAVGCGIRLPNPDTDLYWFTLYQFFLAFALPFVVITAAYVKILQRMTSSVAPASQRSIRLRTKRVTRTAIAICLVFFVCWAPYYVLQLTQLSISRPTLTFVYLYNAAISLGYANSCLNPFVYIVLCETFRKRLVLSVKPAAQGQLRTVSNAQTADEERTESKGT
# protocol-details: Displacement of [3H]SNAP 7941 from rat MCHR1 expressed in HEK293 cells
# Type: cell-based
// pKi is dimensionless: -log10 of concentration (M)

{"compound": "COCC1=C(C(=O)OC)[C@H](c2ccc(F)c(F)c2)N(C(=O)NCCCN2CCC(c3cccc(NC(C)=O)c3)CC2)C(=O)N1", "experimental-result": 9.60}
{"compound": "Cc1ccc(NC(=O)C(C)C)cc1C1CCN(CCCNC(=O)C(C)c2ccccc2)CC1 (single isomer, unassigned; form 1)", "experimental-result": 7.47}
{"compound": "CC(C)C(=O)Nc1cccc(C2CCN(CCCNC(=O)C(c3ccccc3)c3ccccc3)CC2)c1", "experimental-result": 8.72}

Next, consider the following compound.
Recorded pKi of `Cc1ccc(NC(=O)C(C)C)cc1C1CCN(CCCNC(=O)[C@@H](C)c2ccc(F)cc2)CC1` , please. 8.00

----------
# protocol-details: Plasma clearance in Sprague-Dawley rat at 2 mg/kg, po and 1 mg/kg, iv
# Type: ADME, organism-based
value-type: clearance (mL/min/kg)
Unit mL/min/kg implied. Number only.

{"smiles-entry": "Cc1ccc(NC(=O)C(C)C)cc1C1CCN(CCCNC(=O)[C@@H](C)c2ccc(F)cc2)CC1", "value-type": "clearance", "experimental-result": 25}

Okay, next one:
clearance lookup needed for `CC(C)C(=O)Nc1cc(C2CCN(CCCNC(=O)C(c3ccc(F)cc3)c3ccc(F)cc3)CC2)c(F)cc1F` , thanks. 40

----------
# protocol-details: Drug level in Sprague-Dawley rat brain at 10 mg/kg, po after 4 hrs
# Type: ADME, organism-based
# Parameters: dose 10 mg/kg, route oral
# study-conditions: read-out: Drug uptake
value-type: concentration at 4 h
The reply should read as a number followed by its unit.

Look up concentration at 4 h: `Cc1ccc(NC(=O)C(C)C)cc1C1CCN(CCCNC(=O)C(c2ccccc2)c2ccccc2)CC1` 13 ng/g

----------
# protocol-details: Tmax in Sprague-Dawley rat at 2 mg/kg, po and 1 mg/kg, iv
# Type: ADME, organism-based
# study-conditions: in vivo
Below: a set of entries, each annotated with reported Tmax.
Numeric answer only, unit h assumed.

{"smiles-entry": "Cc1ccc(NC(=O)C(C)C)cc1C1CCN(CCCNC(=O)[C@@H](C)c2ccc(F)cc2)CC1", "experimental-result": 2.2}

// next entry
Entry `CC(C)C(=O)Nc1cc(C2CCN(CCCNC(=O)C(c3ccc(F)cc3)c3ccc(F)cc3)CC2)c(F)cc1F` : reported Tmax = ? 0.6

----------
# protocol-details: Cmax in Sprague-Dawley rat at 1 mg/kg, po and 1 mg/kg, iv
# Format: ADME, organism-based
# study-conditions: in vivo
value-type: Cmax (ng/mL)
Answer in ng/mL, number only, no unit symbol.

Look up Cmax: COCC1=C(C(=O)OC)[C@H](c2ccc(F)c(F)c2)N(C(=O)NCCCN2CCC(c3cccc(NC(C)=O)c3)CC2)C(=O)N1 [SNAP-7941] 2.02

----------
# target-entity: Melanin-concentrating hormone receptor 1 (Rattus norvegicus, UniProt P97639)
# protocol-details: Antagonist activity at rat MCHR1 expressed in HEK293 cells assessed as effect on calcium mobilization
value-type: pIC50
pIC50 is defined as minus the log10 of a concentration measured in mol/L.

{"compound": "Cc1ccc(NC(=O)C(C)C)cc1C1CCN(CCCNC(=O)C(C)c2ccccc2)CC1 (single isomer, unassigned; form 2)", "experimental-result": 6.89}
{"compound": "CCC(C(=O)NCCCN1CCC(c2cccc(NC(=O)C(C)C)c2)CC1)(c1ccccc1)c1ccccc1", "experimental-result": 6.72}
{"compound": "Cc1ccc(NC(=O)C(C)C)cc1C1CCN(CCCNC(=O)C(c2ccc(F)cc2)c2ccc(F)cc2)CC1", "experimental-result": 7.57}
{"compound": "CC(C)C(=O)Nc1cccc(C2CCN(CCCNC(=O)C(C)(c3ccccc3)c3ccccc3)CC2)c1", "experimental-result": 6.85}

Look up pIC50 for this compound: `Cc1ccc(NC(=O)C(C)C)cc1C1CCN(CCCNC(=O)[C@H](C)c2ccc(F)cc2)CC1` 7.19

Try this compound too: `CC(C)C(=O)Nc1cccc(C2CCN(CCCNC(=O)C(c3ccccc3)c3ccccc3)CC2)c1` 7.60

----------
# protocol-details: Drug level in Sprague-Dawley rat plasma at 10 mg/kg, po after 2 hrs
# Type: ADME, organism-based
# Set-up: dose 10 mg/kg, route oral
value-type: concentration at 2 h (ng/mL)
# output: bare number, implied unit ng/mL

{"smiles-entry": "Cc1ccc(NC(=O)C(C)C)cc1C1CCN(CCCNC(=O)C(c2ccccc2)c2ccccc2)CC1", "unit-tag": "ng/mL", "concentration at 2 h": 59}

Which measured concentration at 2 h value corresponds to `CC(C)C(=O)Nc1cccc(C2CCN(CCCNC(=O)C(c3ccccc3)c3ccccc3)CC2)c1` ? 12

----------
# protocol-details: Bioavailability in Sprague-Dawley rat at 1 mg/kg, po and 1 mg/kg, iv
# Type: ADME, organism-based
# study-conditions: in vivo
value-type: bioavailability

Form field: reported bioavailability of `COCC1=C(C(=O)OC)[C@H](c2ccc(F)c(F)c2)N(C(=O)NCCCN2CCC(c3cccc(NC(C)=O)c3)CC2)C(=O)N1` 6%

----------
# target-entity: Melanin-concentrating hormone receptor 1 (Rattus norvegicus, UniProt P97639)
# protocol-details: Antagonist activity at rat MCHR1 expressed in HEK293 cells assessed as effect on calcium mobilization
Reported log10 IC50 is given for each of the following compounds.
Give log10 of IC50, with IC50 taken in nM.

# lookup: log10 IC50 of `Cc1ccc(NC(=O)C(C)C)cc1C1CCN(CCCNC(=O)C2(c3ccc(F)cc3)CCCCC2)CC1` 2.28

----------
Attribute: log10(IC50)
# target-entity: Melanin-concentrating hormone receptor 1 (Rattus norvegicus, UniProt P97639)
# protocol-details: Antagonist activity at rat MCHR1 expressed in HEK293 cells assessed as effect on calcium mobilization
All values: log10 IC50 [nM].

{"molecule": "CC(C)C(=O)Nc1cc(C2CCN(CCCNC(=O)C(c3ccc(F)cc3)c3ccc(F)cc3)CC2)c(F)cc1F", "log10(IC50)": 1.53}
{"molecule": "CC(C)C(=O)Nc1cccc(C2CCN(CCCCCCNC(=O)C(c3ccccc3)c3ccccc3)CC2)c1", "log10(IC50)": 2.78}
{"molecule": "Cc1ccc(NC(=O)C(C)C)cc1C1CCN(CCCNC(=O)C(c2ccccc2)c2ccccc2)CC1", "log10(IC50)": 1.43}
{"molecule": "Cc1ccc(NC(=O)C(C)C)cc1C1CCN(CCCNC(=O)C2(c3ccc(F)cc3)CCCC2)CC1", "log10(IC50)": 1.64}
{"molecule": "CC(C)C(=O)Nc1cccc(C2CCN(CCCCNC(=O)C(c3ccccc3)c3ccccc3)CC2)c1", "log10(IC50)": 2.79}
{"molecule": "Cc1ccc(NC(=O)C(C)C)cc1C1CCN(CCCNC(=O)[C@@H](C)c2ccc(F)cc2)CC1", "log10(IC50)": 1.41}
{"molecule": "Cc1ccc(NC(=O)C(C)C)cc1C1CCN(CCCNC(=O)C(O)(c2ccccc2)c2ccccc2)CC1", "log10(IC50)": 1.43}
{"molecule": "CC(C)C(=O)Nc1cccc(C2CCN(CCCNC(=O)C(c3ccc(F)cc3)c3ccc(F)cc3)CC2)c1", "log10(IC50)": 1.11}
{"molecule": "CC(C)C(=O)Nc1cccc(C2CCN(CCNC(=O)C(c3ccccc3)c3ccccc3)CC2)c1", "log10(IC50)": 1.76}

Need log10(IC50) of Cc1ccc(NC(=O)C(C)C)cc1C1CCN(CCCNC(=O)C(C)c2ccccc2)CC1 (single isomer, unassigned; form 1) , thanks. 1.83
